// provenance: patent US12649778

The following binders are listed with their measured ratio (OD450 to WT OD450) values.
biological target: Peptide 1593 (…) (Mycobacterium tuberculosis); assay: ELISA, NNK clone supernatant on coated peptide (22 hits)

These solved cases illustrate the format of a correct answer.
## Task So what does the record say about ratio (OD450 to WT OD450) for 65D3 chimeric Fab, NNK library L2 mutant S to T (VL S24T) (Fab, V domains shown) VH: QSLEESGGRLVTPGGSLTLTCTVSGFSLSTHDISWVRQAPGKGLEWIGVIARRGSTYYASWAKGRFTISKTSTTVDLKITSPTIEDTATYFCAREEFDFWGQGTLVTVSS VL: AVLTQTASPVSAAVGGTVTISCQTSQSVYNNKELSWFQQKPGQPPKLLISYASTLASGVPSRFKGSGSGTQFTLTISDLECDDAATYYCLGGYASTIDMWAFGGGTEVVVK ?
## Result 1.29 fold of WT

## Task So what does the record say about ratio (OD450 to WT OD450) for 65D3 chimeric Fab, NNK library L3 mutant S to H (VL S25H) (Fab, V domains shown) VH: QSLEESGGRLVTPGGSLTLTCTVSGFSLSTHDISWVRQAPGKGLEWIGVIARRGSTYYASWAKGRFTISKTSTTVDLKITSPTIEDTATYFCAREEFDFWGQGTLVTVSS VL: AVLTQTASPVSAAVGGTVTISCQSHQSVYNNKELSWFQQKPGQPPKLLISYASTLASGVPSRFKGSGSGTQFTLTISDLECDDAATYYCLGGYASTIDMWAFGGGTEVVVK ?
## Result 1.18 fold of WT

With those in mind, consider the next binder.
## Task So what does the record say about ratio (OD450 to WT OD450) for 65D3 chimeric Fab, NNK library L5 mutant S to T (VL S27T) (Fab, V domains shown) VH: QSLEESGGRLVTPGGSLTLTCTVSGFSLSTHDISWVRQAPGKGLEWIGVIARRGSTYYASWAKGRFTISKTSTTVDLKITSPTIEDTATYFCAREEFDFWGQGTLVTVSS VL: AVLTQTASPVSAAVGGTVTISCQSSQTVYNNKELSWFQQKPGQPPKLLISYASTLASGVPSRFKGSGSGTQFTLTISDLECDDAATYYCLGGYASTIDMWAFGGGTEVVVK ?
## Result 1.43 fold of WT
